Examples of compounds with documented pIC50 follow.
Tgt: Human immunodeficiency virus type 1 integrase (Human immunodeficiency virus 1, UniProt Q7ZJM1)
Sequence (Q7ZJM1 whole entry): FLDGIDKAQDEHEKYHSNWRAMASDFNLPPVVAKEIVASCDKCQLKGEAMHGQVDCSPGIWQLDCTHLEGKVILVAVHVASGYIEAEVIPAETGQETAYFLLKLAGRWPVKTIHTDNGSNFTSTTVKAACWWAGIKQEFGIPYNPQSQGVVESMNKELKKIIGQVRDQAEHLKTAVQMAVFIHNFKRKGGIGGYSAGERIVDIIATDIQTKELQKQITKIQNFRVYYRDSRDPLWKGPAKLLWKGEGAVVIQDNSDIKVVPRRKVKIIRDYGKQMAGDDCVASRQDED
Procedure Details: Inhibition of strand transfer activity of HIV-1 integrase
pIC50: −log10 of the molar value.
Measured Metric: pIC50

* COc1cc(/C=C/C(=O)CC(=O)/C=C/c2ccc(O)c(OC)c2)ccc1O | 3.85
* COc1cc(/C=C/C(O)=C/C(=O)/C=C/c2ccc(O)cc2)ccc1O | 3.92
* O=C(/C=C/c1ccc(O)c(O)c1)O[C@H](Cc1ccc(O)c(O)c1)C(=O)O | 5.40

###

Tgt: Human immunodeficiency virus type 1 integrase (Human immunodeficiency virus 1)
Procedure Details: Inhibition of 3'- processing activity of HIV-1 integrase
pIC50: −log10 of the molar value.
Measured Metric: pIC50

• COc1cc(CCC(=O)CC(=O)CCc2ccc(O)c(OC)c2)ccc1O [TETRAHYDROCURCUMIN] = < 3.52
• O=C(/C=C/c1ccccc1)CC(=O)/C=C/c1ccccc1 = < 3.52
• COc1ccc(/C=C/C(=O)CC(=O)/C=C/c2ccc(OC)cc2)cc1 = < 3.52
